# Tested on: M14 melanoma
# Method notes: NCI tumour cell line growth inhibition, 48 h
Readout: TGI

Hello, I am looking for reported TGI with M14 melanoma for `Nc1ccc(-c2ccc3ncc4ccc(=O)n(-c5cccc(C(F)(F)F)c5)c4c3c2)cn1` . Could you help?
0.266 µM

// next record `COc1ccc(/C=C/C(=O)Oc2ccccc2OC)cc1`
> 100 µM

// next record `C/C(CC(=O)Nc1ccc(NC(=O)C/C(C)=N\NC(N)=O)cc1)=N/NC(N)=O`
> 100 µM

// next record `CCOc1ccc(C(C)=O)cc1NC(=O)c1cccc(-c2nnn(CC)n2)c1`
> 100 µM

// next record `COc1ccc2c(c1)O/C(=C\c1cccc(OCC(=O)Nc3nc(C)c(C)s3)c1)C2=O`
0.368 µM

// next record `COc1cc(-c2nccc3cc4c(cc23)OCO4)cc(OC)c1OC`
23.2 µM

// next record `Cc1cc(C)nc(NS(=O)(=O)c2ccc(NC(=O)c3cc([N+](=O)[O-])cc([N+](=O)[O-])c3)cc2)n1`
> 100 µM

// next record `COC[C@H]1C(=O)NCC(=O)N2N=CCC[C@H]2C(=O)N(O)[C@H](C)C(=O)O[C@@H](C(C)C)[C@H](NC(=O)[C@@](C)(O)[C@]2(O)CC[C@@H](CC(C)C)[C@H](C)O2)C(=O)N2NCCC[C@@H]2C(=O)N1O`
0.0355 µM

// next record `[N-]=[N+]=Nc1ccc2c(c1)Sc1ccccc1N2CCCCN1CCN(C(=O)CCNC(=O)Cc2ccc(C(=O)c3ccccc3)cc2)CC1`
11.8 µM

###

# Tested on: SW-620 colon
# Method notes: NCI tumour cell line growth inhibition, 48 h; in the data active means GI50 below about 0.43 µM; inactive means the rest
Respond using exactly one of the listed classes: 1.0 for active, 0.0 for inactive

Call for entry `COc1cc(Nc2ncnc(Nc3ccc4c(n3)NC(=O)C(C)(C)O4)n2)cc(OC)c1OC` :
0.0

// next record `O=C(/C=C\n1cnc(-c2cc(C(F)(F)F)cc(C(F)(F)F)c2)n1)N1CC(F)(F)C1`
1.0

// next record COc1cccc(NC(=O)c2sc3nc4c(cc3c2N)C(O)CCC4)c1 (stereo unspecified)
1.0

// next record COc1cc(NC(C)CCCNC(C)C)c2ncccc2c1OC (stereo unspecified)
0.0

// next record `Cc1nc(Sc2nc3ccc([N+](=O)[O-])cc3s2)sc1C`
0.0

// next record `COc1cc(-c2cc3ncccc3c3[nH]c(=O)c4cccnc4c23)cc(OC)c1OC`
0.0

// next record `CCN(CC)c1ccc(/C=N/NC(=O)CSc2nc3ccccc3c(=O)n2Cc2ccc(S(N)(=O)=O)cc2)c(O)c1`
0.0

// next record `Cc1noc(C)c1-c1cnc2c(-c3ccc(C(=O)O)cc3)cn([C@@H](C)c3ccccn3)c2c1`
0.0

// next record `CCc1nn2ncccc2c1-c1ccnc(NC2CC2)n1`
0.0

// next record `O=C(O)Cn1ccc2ccccc21`
0.0

// next record `Cc1ccc(O)c(NC2=C(Cl)C(=O)N(Cc3ccccc3)C2=O)c1`
0.0

// next record `CCN(CC)c1ccc2nc3ccc(N=Nc4ccc(O)cc4)cc3[n+](-c3ccccc3)c2c1`
0.0

// next record `Nc1ccc(-c2ccc3ncc4ccc(=O)n(-c5cccc(C(F)(F)F)c5)c4c3c2)cn1`
1.0

// next record `CCOC(=O)C#Cc1c(C(=O)OCC)nnn1[C@@H]1O[C@H](CO)[C@H]2OC3(CCCCC3)O[C@H]21`
0.0

// next record `COc1ccc(-c2nn3ncccc3c2-c2ccnc(Nc3ccc4c(c3)OCCO4)n2)cc1`
0.0

// next record COc1ccccc1C1C(C#N)=C(N)Oc2cc(O)ccc21 (stereo unspecified)
0.0

###

# Tested on: A498 renal
# Method notes: NCI tumour cell line growth inhibition, 48 h; in the data active = GI50 below about 0.43 µM; inactive = the rest
Respond using exactly one of the listed classes: label 1 = active, label 0 = inactive

Call for entry `CC/C(Cc1ccccc1)=C(/c1ccc(O)cc1)c1ccc(OCCN2CCCC2)cc1` :
label 0

// next record NC(CSC(c1ccccc1)(c1ccccc1)c1ccc(F)cc1)C(=O)O (stereo unspecified)
label 1

// next record `CCc1nn2ncccc2c1-c1ccnc(NC2CC2)n1`
label 0

// next record `COc1ccc2nc3cccc([N+](=O)[O-])c3c(NCCNCCN(C)C)c2c1`
label 0

// next record `Cc1noc(C)c1-c1cnc2c(-c3ccc(C(=O)O)cc3)cn([C@@H](C)c3ccccn3)c2c1`
label 1

// next record `Cc1c(C)c2c(c(C)c1OCC(=O)O)CC[C@@](C)(CCC[C@@H](C)CCC[C@@H](C)CCCC(C)C)O2`
label 0

// next record `CCN(CC)c1ccc2nc3ccc(N=Nc4ccc(O)cc4)cc3[n+](-c3ccccc3)c2c1`
label 0

// next record `C[C@H](NC(=O)c1c(C(F)F)nn(C)c1Oc1cccc(C(F)(F)F)c1)c1ccc(C(=O)O)cc1`
label 0

// next record COc1cc(CN(c2ccc(C)cc2)C2OC(=O)c3ccccc32)cc(OC)c1OC (stereo unspecified)
label 1

// next record `C=C1C(=O)O[C@H]2[C@H]1CC/C(COC(=O)NCCc1cccc(OC)c1)=C\CC[C@@]1(C)O[C@@H]21`
label 0

// next record `Nc1ccc(-c2ccc3ncc4ccc(=O)n(-c5cccc(C(F)(F)F)c5)c4c3c2)cn1`
label 1

###

# System: BT-549 breast
# Method notes: NCI tumour cell line growth inhibition, 48 h
Can you tell me GI50 for the items I'm about to list?

Hello, I am looking for reported GI50 with BT-549 breast for `Cc1c(C)c2c(c(C)c1OCC(=O)O)CC[C@@](C)(CCC[C@@H](C)CCC[C@@H](C)CCCC(C)C)O2` . Could you help?
71700 nM

// next record `COc1cc2nc(-c3cccc4cccnc34)nc(NC3CCN(Cc4ccccc4)CC3)c2cc1OC`
1580 nM

// next record `Cn1cncc1-c1c(F)cncc1NC(=O)c1c(N)nn2cc(F)cnc12`
838 nM

// next record `CCN(CC)c1ccc(/C=N/NC(=O)CSc2nc3ccccc3c(=O)n2Cc2ccc(S(N)(=O)=O)cc2)c(O)c1`
2680 nM

###

Can you tell me TGI for the items I'm about to list?
# Tested on: UO-31 renal
# Method notes: NCI tumour cell line growth inhibition, 48 h
Could you give me the number in µM? Just the number is fine.

// query TGI value for entry COC(=O)CNC(=O)CCC(C)[C@H]1CCC2C3C(C[C@H](OC(C)=O)[C@@]21C)[C@@]1(C)CCC2(C[C@H]1C[C@H]3OC(C)=O)OOC1(CCCCC1)OO2 (stereo not given in full)
3.3

// next record `COc1ccc2c(c1)CCc1c(CO)c(COC(=O)NC(C)C)n(C)c1-2`
19.6

// next record `Cc1nc(Sc2nc3ccc([N+](=O)[O-])cc3s2)sc1C`
4.17

// next record COc1ccc2oc(C(=O)N3CC(CCl)c4ccc(N)cc43)cc2c1 (stereo not given)
0.617

// next record `Oc1c(O)c(Cl)c(Cl)c(Cl)c1Cl`
13.1

// next record `COc1ccc2[nH]c(C(=O)OCc3ccc4cccc(O)c4n3)cc2c1`
1.99

###

# System: DMS 114 small cell lung
# Method notes: NCI tumour cell line growth inhibition, 48 h
Can you tell me TGI for the items I'm about to list?
Could you give me the number in µM? Just the number is fine.

// query TGI value for entry COc1cc(C2c3cc4c(cc3[C@@H](N(C)c3ccc(N(C)C)cc3)C3COC(=O)C23)OCO4)cc(OC)c1O (stereo not given in full)
2.24

// next record `CNCCCNc1c2ccccc2nc2cccc([N+](=O)[O-])c12`
0.0108

###

# System: LOX IMVI melanoma
# Method notes: NCI tumour cell line growth inhibition, 48 h
Readout: TGI

// query TGI value for entry C=C(C)C(=O)OC1C[C@H](COC(C)=O)C2CC=C(CO)C2C2OC(=O)C(=C)[C@H]12 (stereo partly specified)
> 100 µM

// next record OC(COc1ccccc1)CN1CCCCC1 (stereo unspecified)
> 100 µM

// next record `Cc1cccc(Nc2cc(Cl)nc(SCC(=O)O)n2)c1C`
> 100 µM

// next record `CC(C)(C)c1nc(-c2cccc(NS(=O)(=O)c3c(F)cccc3F)c2F)c(-c2ccnc(N)n2)s1`
> 100 µM

// next record C=C(CO)CC(/C=C(\C)CC/C=C(\C)CCl)OC(C)=O (stereo unspecified)
> 100 µM

// next record `CCc1nc2cc(/C=C/C(=O)NO)ccc2c(=O)n1CCc1ccc(OC)cc1`
3.19 µM

// next record `Nc1ccccc1C(=O)NC(=O)Nc1ccc(Oc2ncc(Br)cn2)c(Cl)c1`
24.1 µM

// next record COC(=O)CCC(=O)N1CC1C (stereo unspecified)
> 100 µM

// next record `O=C1C=C(Nc2ccc(S(=O)(=O)Nc3ncccn3)cc2)c2ccccc2C1=O`
30 µM

// next record CC12CCC(CC1(Cl)Cl)C2 (stereo unspecified)
> 100 µM

// next record `CC(=O)c1c(O)n(-c2ccc(C)cc2)c(=O)c2c(N)n[nH]c12`
> 100 µM

// next record `CCNC(=S)NNC(=O)CSc1nc2ccc(I)cc2c(=O)n1Cc1ccccc1`
> 100 µM

// next record OC12c3ccccc3C1CCCCCC21OCCCO1 (stereo unspecified)
> 100 µM

// next record `O=C(NC1(C(=O)O)CCCC1)c1ccccc1`
> 100 µM

// next record `COc1ccc(-c2nn3ncccc3c2-c2ccnc(Nc3ccc4c(c3)OCCO4)n2)cc1`
> 25 µM

// next record `O=C([CH-]C(=O)c1ccccc1)c1ccccc1.O=C([CH-]C(=O)c1ccccc1)c1ccccc1.O=C([CH-]C(=O)c1ccccc1)c1ccccc1.[Cl-].[Zr+4]`
> 100 µM

// next record `CCC(=O)C(C(=O)CC)c1c(OC(=O)c2ccccc2)ccc(O)c1C(=O)OC`
> 100 µM

// next record `CCOc1ccc(C(C)=O)cc1NC(=O)c1cccc(-c2nnn(CC)n2)c1`
70.2 µM

// next record `O=C(Nc1ccc2cc3ccccc3cc2c1)c1cc2c(cc1Cl)Sc1nccn1S2(=O)=O`
> 100 µM

// next record `O=C1NC(=Nc2ccccc2)C(=Nc2ccccc2)N1c1ccccc1`
30.1 µM

// next record CCOC(=O)C1(C(=O)OCC)C=C(c2ccccc2)N(C2OC(COC(C)=O)C(OC(C)=O)C(OC(C)=O)C2OC(C)=O)C1=S (stereo unspecified)
> 100 µM
